Kindly supply the reported TGI values for the records listed here.
Test system: DLD-1 colon
TEST_NAME: NCI tumour cell line growth inhibition, 48 h

Requested read-out: TGI. Entry: COc1cccc2c1C(=O)c1c(O)c3c(c(O)c1C2=O)C[C@@](O)(/C(C)=N\O)C[C@@H]3OC1CC(N)C(O)C(C)O1 (stereo partly drawn)
18.2 µM

Now the same for CCCN1C(=O)/C(=C(/O)C(=O)OCC)C(c2ccc(OC)c(OC)c2)C1=O (stereo not drawn)
> 100 µM

Now the same for COc1ccc(N2C(=O)C3c4[nH]c5ccccc5c4C4CCC(C(C)(C)C)CC4C3C2=O)cc1OC (stereo not drawn)
39.9 µM

* * *

Kindly supply the reported TGI values for the records listed here.
Tested on: A498 renal
TEST_NAME: NCI tumour cell line growth inhibition, 48 h

Requested read-out: TGI. Entry: "Cc1cnc2[nH]c(-c3cccc(Cl)c3)cc(=O)c2c1"
> 100 µM

Now the same for "N#Cc1nc(Nc2ccc([N+](=O)[O-])cc2)sc1N"
> 100 µM

Now the same for "Cn1cnc([N+](=O)[O-])c1Sc1nnc(C(F)(F)F)n1C"
> 100 µM

* * *

Kindly supply the reported TGI values for the records listed here.
System: A549 NSCLC
TEST_NAME: NCI tumour cell line growth inhibition, 48 h

Requested read-out: TGI. Entry: CCCN1C(=O)/C(=C(/O)C(=O)OCC)C(c2ccc(OC)c(OC)c2)C1=O (stereo not given)
> 100 µM

Now the same for "Clc1ccc(-c2nn3c(C45CC6CC(CC(C6)C4)C5)nnc3s2)cc1"
> 100 µM

Now the same for "Cc1ccccc1NC(=O)c1sc2nc3c(cc2c1N)C(=O)CCC3"
> 100 µM

Now the same for "c1csc(-c2nnc(C34CC5CC(CC(C5)C3)C4)o2)c1"
> 100 µM

Now the same for "COc1cnnc2c(C)c(-c3ccccc3)nn12"
> 100 µM

Now the same for "O=C(c1ccccc1)n1[nH]c(=O)n(-c2ccc(Cl)cc2)c1=O"
> 100 µM

Now the same for c1ccc2nn(C3CCCCO3)nc2c1 (stereo not given)
> 100 µM

Now the same for CC1(CO)C(=O)OC12CCCCC2 (stereo not given)
> 100 µM

Now the same for CN1N(c2ccccc2)C(=O)C2=NC=C(C#N)C(=N)C21C (stereo not given)
> 100 µM

Now the same for "CC(C)(C)C(=O)OCC(COC(=O)C(C)(C)C)[N+](=O)[O-]"
> 100 µM

Now the same for "C/C(=N\NC(=O)N/N=C(\C)c1ccccn1)c1ccccn1"
> 100 µM

Now the same for "Cc1cccc(N2C(=O)C(=O)C(c3nc4ccccc4s3)C(=O)C2=O)c1C"
> 100 µM

Now the same for CC(=O)OC1C(O)C(C)OC(OC(=O)C2CCC3C(C2)OC2(CC(OC(=O)/C=C/c4ccccc4)C(C)CO2)C32CO2)C1OC1OC(C)C(O)C(O)C1O (stereo not given)
1.3 µM

Now the same for "CC(C)(CCC(C)(C)c1ccccc1)c1ccccc1"
> 100 µM

Now the same for "CC(C)=CCC/C(C)=C/CC/C(C)=C/CSc1ccc(Cl)cc1C(=O)O"
30.3 µM

Now the same for COc1ccc(/C=C/C(c2cc(OC)c(OC)c(OC)c2)n2cncn2)cc1O (stereo not given)
> 100 µM

Now the same for "CC1=N/C(=C\c2cccc3ccccc23)C(=O)O1"
> 100 µM

Now the same for "COC1=C(OC)C(=O)C(Cc2c(Cl)nc3n2CCS3)=C(C)C1=O"
40.6 µM

Now the same for "N#Cc1ccc2oc3ccc(C#N)cc3c(=O)c2c1"
57 µM

Now the same for "COc1cc(C)cc(OC)c1/C=C/C(=O)O"
> 100 µM

Now the same for "CN(C)CCNC(=O)c1cccc2c1nc(-c1ccccn1)c1ccccc12"
27.9 µM

Now the same for "C/C(=C/c1c(C)[nH]c(=O)[nH]c1=O)C(=O)O"
> 1380 µM

Now the same for "CC(C)C[C@H](NC(=O)[C@H](CCc1ccccc1)NC(=O)c1ccc2ccccc2n1)B(O)O"
13.4 µM

Now the same for "O=[N+]([O-])c1ccc(-[n+]2ccc3ccccc3c2)c([N+](=O)[O-])c1"
34.1 µM

Now the same for "CN(C)CCCC(=O)Nc1ccc(Cn2nnc3c2C(=O)c2nnn(Cc4ccc(NC(=O)CCCN(C)C)cc4)c2C3=O)cc1"
39.2 µM

Now the same for "COc1ccc(/C=C/C(C(=O)O)C(=O)O)cc1"
> 100 µM

Now the same for C#CC#CC#CC#CC#CC#CC#CC#CCC1OC[C@H](COC(=O)O[C@@H](C(=O)O[C@H]2C[C@@]3(O)[C@@H](OC(=O)c4ccccc4)[C@@H]4[C@]5(OC(C)=O)CO[C@@H]5C[C@H](O)[C@@]4(C)C(=O)[C@H](OC(C)=O)C(=C2C)C3(C)C)[C@@H](NC(=O)c2ccccc2)c2ccccc2)O1 (stereo not given in full)
> 33.3 µM

Now the same for "Oc1ccccc1C=Nc1ccccc1N=Cc1ccccc1O"
> 100 µM

Now the same for O=C1CC(Cl)c2c(Cl)sc(Cl)c21 (stereo not given)
12.7 µM

Now the same for "Cc1nc2ccccc2cc1C[N+]12CN3CN(CN(C3)C1)C2"
> 100 µM

Now the same for "N#CC(=S)Nc1ccc(F)cc1"
> 100 µM

Now the same for "Clc1cccc(N=C/C=C/Nc2cccc(Cl)c2)c1"
83.9 µM

Now the same for "C=CCc1cccc2cc(C(=O)Nc3nc(C45CC6CC(CC(C6)C4)C5)cs3)c(=O)oc12"
> 100 µM

Now the same for "O=C(/C=C/c1ccc(Cl)cc1)c1ccncc1"
> 100 µM

Now the same for "Clc1ccc(Nc2nc3ccccc3c3occc23)cc1"
16.8 µM

The origin of these recorded values is PubChem BioAssay (NCI).
